Tested on: MES SA uterine sarcoma cell line
procedure_text: 72 h killing (cytotoxicity) assay, MES SA
Type: cell-based, human
conditions_used: MES SA cells; read-out: Cytotoxic activity IC50
pIC50: −log10 of the molar value. Non-standard residues stand in square brackets, D forms with d. Residues, ends and D or L forms follow the SMILES beside them. *: point of attachment. Dolaproine = CO[C@@H]([C@@H]1CCCN1)[C@@H](C)C(=O)O; Dil = CC[C@H](C)[C@H](NC)[C@@H](CC(=O)O)OC; X1 = C[C@@H](N*)[C@@H](O)c1ccccc1; NMeV = CN[C@H](C(=O)O)C(C)C
assay_endpoint: pIC50

molecule	numeric_value
CC[C@H](C)[C@@H]([C@@H](CC(=O)N1CCC[C@H]1[C@H](OC)[C@@H](C)C(=O)N[C@H](C)[C@@H](O)c1ccccc1)OC)N(C)C(=O)[C@@H](NC(=O)[C@@H](NC)C(C)C)C(C)C [MMAE, monomethyl auristatin E] (H-[NMeV]V[Dil][Dolaproine]-X1)	9.29
